Consider the following molecules; for each one, report its melting point.

Completed entries (count: 3):
item_smiles	melting point
COCCN(C)c1cc2c(cc1Cl)NC(=O)CC(c1cccc(-n3nncc3CO)c1)=N2	185 °C
CCCN(C)c1cc2c(cc1Cl)NC(=O)CC(c1cccc(-n3nncc3CN(CC)CC)c1)=N2	151 °C
Cc1cc2c(cc1N(C)CC(C)C)N=C(c1cccc(-n3ncnc3CN3CCCC3)c1)CC(=O)N2	164 °C

I'm hoping you can list melting point for every molecule here, please.
1. Cc1cc(-c2cccc(C3=Nc4cc(N(C)C)c(C(F)(F)F)cc4NC(=O)C3)c2)on1
2. Cc1cc(-c2cccc(C3=Nc4cc(NC(C)C)c(Cl)cc4NC(=O)C3)c2)on1
3. CN(C)c1cc2c(cc1C(F)(F)F)NC(=O)CC(c1cccc(-n3ccnc3)c1)=N2

Resp:
1: 223 °C; 2: 225 °C; 3: 203 to 205 °C

I'm hoping you can list melting point for every molecule here, please.
1. Cc1nc(-c2cccc(C3=Nc4cc(N(C)C)c(C(F)(F)F)cc4NC(=O)C3)c2)c(C)s1
2. N#Cc1cc(C2=Nc3cc(N4CCCC4)c(C(F)(F)F)cc3NC(=O)C2)ccn1
3. CCCN(C)c1cc2c(cc1Cl)NC(=O)CC(c1cccc(-n3nncc3CN(C)C(C)C)c1)=N2

Resp:
208 to 209 °C
188 °C (dec.)
148 °C

* * *

Consider the following molecules; for each one, report its melting point.
Answers are plain numbers, in °C.

I'm hoping you can list melting point for every molecule here, please.
1. CCCN(C)c1cc2c(cc1C)NC(=O)CC(c1cccc(C#N)c1)=N2 [Example 92]
2. Cc1cc(-c2cccc(C3=Nc4cc(N(C)C)c(C#N)cc4NC(=O)C3)c2)on1 [Example 98]

Resp:
1. 195
2. 248

I'm hoping you can list melting point for every molecule here, please.
1. Cc1cc2c(cc1N(C)CC(C)C)N=C(c1cccc(-n3ncnc3CO)c1)CC(=O)N2 [Example 168]
2. CC(C)CNc1cc2c(cc1Cl)NC(=O)CC(c1cccc(-n3cncn3)c1)=N2 [Example 181]

Resp:
191
222

* * *

quantity_measured: melting point (°C)
Give bare numbers, in °C.

Completed entries (count: 3):
item_smiles	measured
Cc1cc(-c2cccc(C3=Nc4cc(N5CCCC5)c(C)cc4NC(=O)C3)c2)on1	211
CN(C)c1cc2c(cc1F)NC(=O)CC(c1cccc(-n3nncc3CO)c1)=N2	75
Cc1cc(-c2cccc(C3=Nc4cc(N5CCCC5)c(F)cc4NC(=O)C3)c2)on1	236

Consider the additional molecule presented here.
Req: Identify the reported melting point for the following entry. CN(C)c1cc2c(cc1C(F)(F)F)NC(=O)CC(c1ccnc(C#N)c1)=N2
Resp: 248

* * *

quantity_measured: melting point

Completed entries (count: 3):
item_smiles	quantity_measured	measured
CCN(C)c1cc2c(cc1Cl)NC(=O)CC(c1cccc(-n3nncc3CO)c1)=N2	melting point	206 °C (dec.)
CN(C)c1cc2c(cc1Cl)NC(=O)CC(c1cccc(-n3cccn3)c1)=N2	melting point	231 to 234 °C
Cc1sc(CO)nc1-c1cccc(C2=Nc3cc(N(C)C)c(C(F)(F)F)cc3NC(=O)C2)c1	melting point	190 to 193 °C

I'm hoping you can list melting point for every compound here, please.
1. CC(C)CN(C)c1cc2c(cc1Cl)NC(=O)CC(c1cccc(-n3nncc3CN3CCC3)c1)=N2
2. O=C1CC(c2cccc(-n3nncc3CO)c2)=Nc2cc(N3CCCC3)c(C(F)(F)F)cc2N1
3. CC(C)CN(C)c1cc2c(cc1C(F)(F)F)NC(=O)CC(c1cccc(-n3ccnn3)c1)=N2
4. Cc1cc(-c2cccc(C3=Nc4cc(N5CCC5)c(C(F)(F)F)cc4NC(=O)C3)c2)on1
5. CCN(C)c1cc2c(cc1Cl)NC(=O)CC(c1cccc(-c3nc(CO)cs3)c1)=N2

Resp:
1: 191 °C; 2: 134 °C; 3: 202 °C; 4: 239 °C (dec.); 5: 136 to 137 °C
